Reported shrunken log2 fold change values follow for various sequences
Test system: Escherichia coli TOP10;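 also: peptides expressed intracellularly from a pBAD plasmid library in pooled LB shake-flask culture, induced with 0.3% L-arabinose, DNA abundance read by NGS, three biological replicates, DESeq2 with apeglm shrinkage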
Procedure Details: shrunken log2 fold change of peptide-encoding DNA abundance (4.5 h post-induction vs induction); higher = less antimicrobial activity (less host growth inhibition)
Assay Setup: time post-induction: 4.5 h; library: site-saturation at positions 5, 18, 19, 20
Write the value as a bare number.

Worked set:
{"Ordered Residues": "RRIRDRPPRLPRPRPRPVTHPRP", "Quantitative Result": -0.0987}
{"Ordered Residues": "RRIRGRPPRLPRPRPRPRKNPRP", "Quantitative Result": 0.74}
{"Ordered Residues": "RRIRARPPRLPRPRPRPRYEPRP", "Quantitative Result": 0.0403}
{"Ordered Residues": "RRIRKRPPRLPRPRPRPQLWPRP", "Quantitative Result": 0.539}
{"Ordered Residues": "RRIRKRPPRLPRPRPRPREYPRP", "Quantitative Result": 0.261}

Kindly note the recorded shrunken log2 fold change for RRIRSRPPRLPRPRPRPMYSPRP , which is -1.24

Lookup result for RRIRRRPPRLPRPRPRPREHPRP ; measured shrunken log2 fold change: 0.673

Item: RRIRERPPRLPRPRPRPQMRPRP | shrunken log2 fold change: 0.0123
